Target: carboxylesterase 1 (CES1) (Homo sapiens)
Sequence (P23141 18-567): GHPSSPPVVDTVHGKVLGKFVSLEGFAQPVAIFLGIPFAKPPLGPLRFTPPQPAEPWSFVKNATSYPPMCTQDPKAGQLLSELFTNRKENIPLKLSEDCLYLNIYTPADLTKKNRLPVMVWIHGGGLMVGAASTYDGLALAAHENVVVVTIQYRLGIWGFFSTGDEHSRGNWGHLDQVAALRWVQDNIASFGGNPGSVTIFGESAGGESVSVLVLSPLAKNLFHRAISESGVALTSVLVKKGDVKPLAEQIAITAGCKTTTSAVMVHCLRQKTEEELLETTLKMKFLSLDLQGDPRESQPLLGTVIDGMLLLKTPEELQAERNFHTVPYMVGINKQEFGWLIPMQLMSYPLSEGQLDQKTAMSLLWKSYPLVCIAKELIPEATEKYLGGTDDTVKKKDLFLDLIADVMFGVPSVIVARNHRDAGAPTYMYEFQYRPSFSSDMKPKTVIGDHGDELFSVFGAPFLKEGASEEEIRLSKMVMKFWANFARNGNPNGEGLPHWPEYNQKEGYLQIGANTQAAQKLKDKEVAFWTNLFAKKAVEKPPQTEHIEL
Test: Concentration response curves for inhibition of CES1
Type: biochemical
Conditions: read-out: IC50 (kratom alkaloids); alkaloid 0–128 μM, 200 μM OST, 1% DMSO, CES1 S9
result type: IC50 (µM)
Write the answer as a number in µM, unit excluded.

Consider "CC[C@H]1CN2CCc3c([nH]c4cccc(OC)c34)[C@@H]2C[C@@H]1/C(=C\OC)C(=O)OC" . Its measured IC50 is 54.3

---

biological target: carboxylesterase 1 (CES1) (Homo sapiens); experiment: Time-dependent inhibition of CES1; type: biochemical; conditions: No preincubation; mean ± S.E.; 200 μM OST
result type: pIC50
Remember the convention: pIC50 equals -log10 of concentration in molar.

// CC[C@@H]1CN2CCc3c([nH]c4cccc(OC)c34)[C@H]2C[C@@H]1/C(=C\OC)C(=O)OC [speciociliatine] : pIC50 value = 4.74

Lookup result for C=C[C@H]1CN2CCc3c([nH]c4cccc(OC)c34)[C@@H]2C[C@@H]1/C(=C\OC)C(=O)OC [paynantheine] ; measured pIC50: 4.48
